Task for the reader: assign each of the following compounds its reported Percent Effect.
- system_name: Aspartate--tRNA(Asp/Asn) ligase (Mycobacterium tuberculosis (strain ATCC 25618 / H37Rv)) (UniProt P9WFW3)
- Sequence (P9WFW3 whole entry): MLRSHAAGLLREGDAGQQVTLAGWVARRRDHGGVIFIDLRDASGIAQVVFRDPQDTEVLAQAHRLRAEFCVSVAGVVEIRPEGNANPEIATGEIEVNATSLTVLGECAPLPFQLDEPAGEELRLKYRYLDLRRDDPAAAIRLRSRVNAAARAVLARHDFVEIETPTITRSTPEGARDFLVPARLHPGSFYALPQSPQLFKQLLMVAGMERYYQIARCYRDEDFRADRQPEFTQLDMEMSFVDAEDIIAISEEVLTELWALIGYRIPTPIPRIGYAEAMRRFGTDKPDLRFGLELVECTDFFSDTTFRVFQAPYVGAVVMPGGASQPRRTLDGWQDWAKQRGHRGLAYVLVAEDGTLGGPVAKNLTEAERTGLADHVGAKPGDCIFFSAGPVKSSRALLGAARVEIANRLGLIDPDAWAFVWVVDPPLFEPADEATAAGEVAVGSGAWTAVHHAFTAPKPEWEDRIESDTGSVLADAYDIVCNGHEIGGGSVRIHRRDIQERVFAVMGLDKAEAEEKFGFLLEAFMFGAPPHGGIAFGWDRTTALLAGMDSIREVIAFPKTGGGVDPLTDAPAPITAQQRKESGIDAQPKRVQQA
- test_method_notes: Assay for Asp RNA synthetase-1 from Mycobacterium tuberculosis
- Type: functional
- Parameters: scale not given: in the data most compounds retested in dose-response had high values
- stated_conditions: 30 µM
Reply numerically in %, unit not repeated.

Task item: Reported Percent Effect, compound Cc1cc(CN2CC[C@H]3C[C@H](C)O[C@@H]3C2)no1 : ____
Reply: -4.38

Task item: Reported Percent Effect, compound Cc1nsc(C(=O)N2CCc3ccccc3C2)n1 : ____
Reply: -2.11

Task item: Reported Percent Effect, compound CCOCCOC(C)C(=O)NCc1cn2cc(Br)ccc2n1 (stereo not given) : ____
Reply: 1.62

Task item: Reported Percent Effect, compound O=C1CC(c2cccs2)c2snc(C(=O)O)c2N1 (stereo not given) : ____
Reply: -3.23

Task item: Reported Percent Effect, compound O=C(N1CCOCC1)[C@@]12CCO[C@@H]1CCN(CCN1CCCCC1)C2 : ____
Reply: 3.6

Task item: Reported Percent Effect, compound Cn1nc(CNC(=O)C2CCCC2)cc1C1CC1 : ____
Reply: 0.0146

Task item: Reported Percent Effect, compound CCOc1ccccc1CSc1nnc(CC2CCS(=O)(=O)C2)n1C (stereo not given) : ____
Reply: 4.33

Task item: Reported Percent Effect, compound Cc1cc(C2CCCN(CCc3ccccn3)C2)n[nH]1 (stereo not given) : ____
Reply: -5.34

Task item: Reported Percent Effect, compound COCCN1CCC(CNC(=O)C2(c3cc(C)cc(C)c3)CCC2)C1 (stereo not given) : ____
Reply: -0.337

Task item: Reported Percent Effect, compound COc1cccc2c1OCC(C(=O)N(C)CCCc1cnn(C)c1)C2 (stereo not given) : ____
Reply: 9.43

Task item: Reported Percent Effect, compound Cc1[nH]c2ccccc2c1-c1ccnc(NC[C@H](O)CO)n1 : ____
Reply: 0.691

Task item: Reported Percent Effect, compound Cc1cc(CN2CCC(CNC(=O)c3nccc4ccccc34)C2)[nH]n1 (stereo not given) : ____
Reply: 8.37

Task item: Reported Percent Effect, compound CN1CCN(c2cc(CNC(=O)c3ccc(=O)[nH]n3)ccn2)CC1 : ____
Reply: -0.544

Task item: Reported Percent Effect, compound O=C(c1cc[nH]n1)N1CCC(Nc2cccnn2)CC1 : ____
Reply: -8.36

Task item: Reported Percent Effect, compound CCC1CN(c2nnc(C)c(C)c2C#N)CCO1 (stereo not given) : ____
Reply: 0.1

Task item: Reported Percent Effect, compound Cc1noc(C)c1C(=O)N1CCCC1c1c(C)nn(C)c1Cl (stereo not given) : ____
Reply: -3.2

Task item: Reported Percent Effect, compound CCn1nc(C)cc1C(=O)Nc1cc(F)ccc1OCC1CCCO1 (stereo not given) : ____
Reply: -3.81

Task item: Reported Percent Effect, compound CC(C)CNC(=O)NC(=O)CNc1ccccc1SCC(C)C#N (stereo not given) : ____
Reply: -5.03

Task item: Reported Percent Effect, compound CCCNC(=O)COc1ccc(C)cn1 : ____
Reply: -4.7

Task item: Reported Percent Effect, compound Cc1noc(C2CCCN(C(=O)c3ccc(Br)o3)C2)n1 (stereo not given) : ____
Reply: -2.54

Task item: Reported Percent Effect, compound CCc1c(C(=O)N2CCN(CC(N)=O)CC2)cnn1C(C)(C)C : ____
Reply: -2.87

Task item: Reported Percent Effect, compound CCC(C(=O)NCc1ccncc1)N(c1cccc(C)c1)S(C)(=O)=O (stereo not given) : ____
Reply: -1.51

Task item: Reported Percent Effect, compound CC(C(=O)N1CCN(c2cnccn2)CC1)n1cncn1 (stereo not given) : ____
Reply: 2.72

Task item: Reported Percent Effect, compound Fc1ccc2[nH]c(C3CCCN3CCc3ccccn3)nc2c1 (stereo not given) : ____
Reply: 7.64

Task item: Reported Percent Effect, compound Cc1nnc(C(C)NCC2(c3ccc(Cl)cc3)CCCC2)o1 (stereo not given) : ____
Reply: 4.47

Entry source: ChEMBL document CHEMBL3988442
